Assay: Cytotoxicity against human MT4 cells by cell-titer Glo assay
Assay type: cell-based
Assay metric: CC50

[[record]]
smiles_structure = "C=C(C)[C@@H]1CC[C@]2(C(=O)OCCc3cccc(C(F)(F)F)c3)CC[C@]3(C)[C@H](CC[C@@H]4[C@@]5(C)CC[C@H](OC(=O)CC(C)(C)C(=O)O)C(C)(C)[C@@H]5CC[C@]43C)[C@@H]12"
reported_result = "> 5 µM"

[[record]]
smiles_structure = "C=C(C)[C@@H]1CC[C@]2(C(=O)OCC3CCC(F)(F)CC3)CC[C@]3(C)[C@H](CC[C@@H]4[C@@]5(C)CC[C@H](OC(=O)CC(C)(C)C(=O)O)C(C)(C)[C@@H]5CC[C@]43C)[C@@H]12"
reported_result = "> 6 µM"

[[record]]
smiles_structure = "C=C(C)[C@@H]1CC[C@]2(C(=O)O)CC[C@]3(C)[C@H](CC[C@@H]4[C@@]5(C)CC[C@H](OC(=O)CC(C)(C)C(=O)O)C(C)(C)[C@@H]5CC[C@]43C)[C@@H]12"
reported_result = "> 17 µM"


Now examine the next entry.
Lookup: Give me measured CC50, please, for this compound: C=C(C)[C@@H]1CC[C@]2(C(=O)O)CC[C@]3(C)[C@H](CC[C@@H]4[C@@]5(C)C[C@@H](F)[C@H](OC(=O)CC(C)(C)C(=O)O)C(C)(C)[C@@H]5CC[C@]43C)[C@@H]12
Found: > 17 µM

###

Experiment: Cytotoxicity against human MT4 cells by cell-titer Glo assay
Assay type: cell-based
Assay metric: CC50

Lookup: Give me measured CC50, please, for this molecule: C=C(C)[C@@H]1CC[C@]2(C(=O)O)CC[C@]3(C)[C@H](CC[C@@H]4[C@@]5(C)CC[C@H](OC(=O)C(F)(F)C(F)(F)C(=O)O)C(C)(C)[C@@H]5CC[C@]43C)[C@@H]12
Found: > 6 µM

###

Catalogue of molecules with associated EC50
Tested on: Human immunodeficiency virus 1
Experiment: Antiviral activity against HIV-1 NL4-3 infected in MT4 cells assessed inhibition of viral replication measured on day 4 postinfection by ELISA
Format: functional, organism-based
Conditions: Human immunodeficiency virus 1, NL4-3, MT4, 96 h
Form entry: value (nM) — number only.

[[record]]
smiles_structure = "C=C(C)[C@@H]1CC[C@]2(C(=O)OCCc3cccc(C(F)(F)F)c3)CC[C@]3(C)[C@H](CC[C@@H]4[C@@]5(C)CC[C@H](OC(=O)CC(C)(C)C(=O)O)C(C)(C)[C@@H]5CC[C@]43C)[C@@H]12"
unit_of_measure = "nM"
reported_result = 3000


Now examine the next entry.
Lookup: Give me measured EC50, please, for this molecule: C=C(C)[C@@H]1CC[C@]2(C(=O)OCCC3CC3)CC[C@]3(C)[C@H](CC[C@@H]4[C@@]5(C)C[C@@H](F)[C@H](OC(=O)CC(C)(C)C(=O)O)C(C)(C)[C@@H]5CC[C@]43C)[C@@H]12
Found: 1100

###

System: Human immunodeficiency virus 1
Test: Antiviral activity against HIV-1 NL4-3 infected in MT4 cells assessed inhibition of viral replication measured on day 4 postinfection by ELISA
Type: functional, organism-based
Details: Human immunodeficiency virus 1, NL4-3, MT4, 96 h
Catalogue of compounds with associated pEC50
The read-out pEC50 is expressed as -log10 of concentration in moles per litre.

For orientation, consider the following solved cases.
[[record]]
smiles_structure = "C=C(C)[C@@H]1CC[C@]2(C(=O)OCC3CCC(F)(F)CC3)CC[C@]3(C)[C@H](CC[C@@H]4[C@@]5(C)CC[C@H](OC(=O)CC(C)(C)C(=O)O)C(C)(C)[C@@H]5CC[C@]43C)[C@@H]12"
measurement_target = "Human immunodeficiency virus 1"
reported_result = 6.51

[[record]]
smiles_structure = "C=C(CC(F)(F)F)[C@@H]1CC[C@]2(C(=O)O)CC[C@]3(C)[C@H](CC[C@@H]4[C@@]5(C)CC[C@H](OC(=O)CC(C)(C)C(=O)O)C(C)(C)[C@@H]5CC[C@]43C)[C@@H]12"
measurement_target = "Human immunodeficiency virus 1"
reported_result = 7.01


Now examine the next entry.
Lookup: Give me measured pEC50, please, for this compound: C=C(C)[C@@H]1CC[C@]2(C(=O)O)CC[C@]3(C)[C@H](CC[C@@H]4[C@@]5(C)CC[C@H](OC(=O)CC(C)(C)C(=O)O)C(C)(C)[C@@H]5CC[C@]43C)[C@@H]12
Found: 7.12

###

Test: Cytotoxicity against human MT4 cells by cell-titer Glo assay
Type: cell-based
Assay metric: CC50

For orientation, consider the following solved cases.
[[record]]
smiles_structure = "C=C(C)[C@@H]1CC[C@]2(C(=O)OCCC3CC3)CC[C@]3(C)[C@H](CC[C@@H]4[C@@]5(C)C[C@@H](F)[C@H](OC(=O)CC(C)(C)C(=O)O)C(C)(C)[C@@H]5CC[C@]43C)[C@@H]12"
reported_result = "> 6 µM"

[[record]]
smiles_structure = "C=C(C)[C@@H]1CC[C@]2(C(=O)O)CC[C@]3(C)[C@H](CC[C@@H]4[C@@]5(C)CC[C@H](OC(=O)C(F)(F)C(F)(F)C(F)(F)C(=O)O)C(C)(C)[C@@H]5CC[C@]43C)[C@@H]12"
reported_result = "> 6 µM"

[[record]]
smiles_structure = "C=C(C)[C@@H]1CC[C@]2(C(=O)OC)CC[C@]3(C)[C@H](CC[C@@H]4[C@@]5(C)C[C@@H](F)[C@H](OC(=O)CC(C)(C)C(=O)O)C(C)(C)[C@@H]5CC[C@]43C)[C@@H]12"
reported_result = "> 16 µM"


Lookup: Give me measured CC50, please, for this compound: C=C(C)[C@@H]1CC[C@]2(C(=O)OC)CC[C@]3(C)[C@H](CC[C@@H]4[C@@]5(C)C[C@@H](C(F)(F)F)[C@H](OC(=O)CC(C)(C)C(=O)O)C(C)(C)[C@@H]5CC[C@]43C)[C@@H]12
Found: > 6 µM

Lookup: Give me measured CC50, please, for this compound: C=C(CC(F)(F)F)[C@@H]1CC[C@]2(C(=O)O)CC[C@]3(C)[C@H](CC[C@@H]4[C@@]5(C)CC[C@H](OC(=O)CC(C)(C)C(=O)O)C(C)(C)[C@@H]5CC[C@]43C)[C@@H]12
Found: > 6 µM

###

Tested on: Human immunodeficiency virus 1
Experiment: Antiviral activity against HIV-1 NL4-3 infected in MT4 cells assessed inhibition of viral replication measured on day 4 postinfection by ELISA
Type: functional, organism-based
Conditions: Human immunodeficiency virus 1, NL4-3, MT4, 96 h
pEC50: −log10 of the molar value.
Assay metric: pEC50

[[record]]
smiles_structure = "C=C(C)[C@@H]1CC[C@]2(C(=O)OC)CC[C@]3(C)[C@H](CC[C@@H]4[C@@]5(C)C[C@@H](C(F)(F)F)[C@H](OC(=O)CC(C)(C)C(=O)O)C(C)(C)[C@@H]5CC[C@]43C)[C@@H]12"
reported_result = "< 5.22"

[[record]]
smiles_structure = "C=C(C)[C@@H]1CC[C@]2(C(=O)OC)CC[C@]3(C)[C@H](CC[C@@H]4[C@@]5(C)C[C@@H](F)[C@H](OC(=O)CC(C)(C)C(=O)O)C(C)(C)[C@@H]5CC[C@]43C)[C@@H]12"
reported_result = "< 4.80"


Now examine the next entry.
Lookup: Give me measured pEC50, please, for this compound: C=C(C)[C@@H]1CC[C@]2(C(=O)O)CC[C@]3(C)[C@H](CC[C@@H]4[C@@]5(C)CC[C@H](OC(=O)C(F)(F)C(F)(F)C(=O)O)C(C)(C)[C@@H]5CC[C@]43C)[C@@H]12
Found: < 5.22

From: ChEMBL document CHEMBL3739279
